The reported numbers originate from a melting point compilation (Tetko et al.; mined from patent text by program, amines drawn as free bases though some values may be those of a salt).

Measured melting point, listed per entry for reference.

Past entries and their recorded results:
MOLECULE_SMILES	REPORTED_MEASUREMENT
CCCCCCCCc1ccc(CCC(N)(CO)CO)cc1	103 to 105 °C
OC(c1ccc(Cl)cc1)(c1ccc(Cl)cc1)c1nccn1COCc1ccccc1	139 to 141 °C
COc1cccc(C2=CCN(C(=O)CSCc3c[nH]c4ccccc34)CC2)c1	115 to 117 °C
Cc1ccnc(CSc2nc(C)cc(=O)[nH]2)c1	157 to 158 °C
COc1c(C(=O)O)nc(Br)c(Cl)c1N	154 to 156 °C

Now consider a different molecule.
**Query** Quick check: melting point of `CCOC(=O)/C=C/c1cccc(-c2ccc(OCC)c(OC)c2)c1` ?
**Result** 89 to 91 °C
